- Test system: Annual bluegrass
- ASSAY OVERVIEW: Post-emergence herbicide test
- Type: in vivo
- MEASUREMENT SETUP: 1.12 kg/ha, read-out: % plant inhibition (Anbg)
Below is a list of entries, each paired with its recorded inhibition at 1120 g/ha value.
A bare number is not enough; add the unit after it.

The cases that follow already have their inhibition at 1120 g/ha on record.
ITEM SMILES	inhibition at 1120 g/ha
Cn1nc(-c2cc(C3SCCS3)c(Cl)cc2F)c(Cl)c1C(F)(F)F	90%
CC(C)CCOC(=O)c1cc(-c2nn(C)c(C(F)(F)F)c2Cl)c(F)cc1Cl	90%

# evaluate next
Lookup: API: value(readout= inhibition at 1120 g/ha, system= Annual bluegrass, query= Cn1nc(-c2cc(N)c(Cl)cc2F)c(Cl)c1C(F)F )
Found: 90%

---

Below is a list of entries, each paired with its recorded inhibition at 11210 g/ha value.
- Test system: Seedling johnsongrass
- ASSAY OVERVIEW: Post-emergence herbicide test
- Type: in vivo
- MEASUREMENT SETUP: Sorghum halepense, 11.21 kg/ha, read-out: % plant inhibition (Sejg)

The cases that follow already have their inhibition at 11210 g/ha on record.
ITEM SMILES	SYSTEM	inhibition at 11210 g/ha
Cn1nc(-c2cc(C(Br)Br)c(Cl)cc2F)c(Cl)c1C(F)(F)F	Seedling johnsongrass	100%
Cn1nc(-c2ccc(Cl)cc2)c(Cl)c1C(F)(F)Cl	Seedling johnsongrass	60%
Cc1cc(-c2nn(C)c(C(F)(F)F)c2Cl)c(F)cc1Cl	Seedling johnsongrass	100%

Lookup: Consider the molecule shown here: Cn1nc(-c2cc(Oc3ccc(C(F)(F)F)cc3)c(Cl)cc2F)c(Cl)c1C(F)(F)F What is its recorded inhibition at 11210 g/ha?
Found: 70%

Lookup: Consider the molecule shown here: Cn1nc(-c2ccc([N+](=O)[O-])cc2)c(Cl)c1C(F)(F)F What is its recorded inhibition at 11210 g/ha?
Found: 70%

Lookup: Consider the molecule shown here: Cn1nc(-c2cc(N3CCOCC3)c(Cl)cc2F)c(Cl)c1C(F)(F)F What is its recorded inhibition at 11210 g/ha?
Found: 100%

---

- System: Seedling johnsongrass
- ASSAY OVERVIEW: Post-emergence herbicide test
- Format: in vivo
- MEASUREMENT SETUP: Sorghum halepense, 11.21 kg/ha, read-out: % plant inhibition (Sejg)
Below is a list of entries, each paired with its recorded inhibition at 11210 g/ha value.

Lookup: API: value(readout= inhibition at 11210 g/ha, system= Seedling johnsongrass, query= Cn1nc(-c2cc(NC(=O)C3(Br)CC3)c(Cl)cc2F)c(Cl)c1C(F)(F)F [Compound 500] )
Found: 90%

Lookup: API: value(readout= inhibition at 11210 g/ha, system= Seedling johnsongrass, query= Cn1nc(C(F)(F)F)c(Cl)c1-c1cc([N+](=O)[O-])c(F)cc1F [Compound 77] )
Found: 20%

---

Below is a list of entries, each paired with its recorded inhibition at 1120 g/ha value.
- Tested on: Indian Mustard
- ASSAY OVERVIEW: Pre-emergence herbicide test
- Type: in vivo
- MEASUREMENT SETUP: Brassica juncea, 1.12 kg/ha, read-out: % plant inhibition (Inmu)
Express it in %; write the number only.

The cases that follow already have their inhibition at 1120 g/ha on record.
ITEM SMILES	SYSTEM	MEASUREMENT UNITS	inhibition at 1120 g/ha
CC(C)CCOC(=O)c1cc(-c2nn(C)c(C(F)(F)F)c2Cl)c(F)cc1Cl	Indian Mustard	%	80
CC(=NOCC(N)=O)c1cc(-c2nn(C)c(C(F)(F)F)c2Cl)c(F)cc1Cl	Indian Mustard	%	80
CCOC(=O)CSCc1cc(-c2nn(C)c(C(F)(F)F)c2Cl)c(F)cc1Cl	Indian Mustard	%	80

# evaluate next
Lookup: Consider the compound shown here: Cn1nc(-c2cc(O)c(Br)cc2F)c(Cl)c1C(F)(F)F What is its recorded inhibition at 1120 g/ha?
Found: 80

---

- System: Downy Brome
- ASSAY OVERVIEW: Post-emergence herbicide test
- Type: in vivo
- MEASUREMENT SETUP: Bromus tectorum, 1.12 kg/ha, read-out: % plant inhibition (Dobr)
Below is a list of entries, each paired with its recorded inhibition at 1120 g/ha value.
Express it in %; write the number only.

COMPOUND	inhibition at 1120 g/ha (%)
Cn1nc(-c2cc(C3=NCCO3)c(Cl)cc2F)c(Cl)c1C(F)(F)F	90
Cn1nc(-c2cc(N)c(Cl)cc2F)c(Cl)c1C(F)F	90
Cn1nc(-c2cc(O)c(Cl)cc2F)c(Cl)c1C(F)(F)Cl	90
CCOC(=O)C(C)Oc1cc(-c2nn(C)c(C(F)(F)F)c2Cl)c(F)cc1Br (stereo not drawn)	90

Lookup: Consider the compound shown here: Cn1nc(-c2cc(C=NOCC(=O)O)c(Cl)cc2F)c(Cl)c1C(F)(F)F What is its recorded inhibition at 1120 g/ha?
Found: 30

Lookup: Consider the compound shown here: C#CCOc1cc(-c2c(Cl)c(C(F)(F)F)nn2C)c(F)cc1Cl What is its recorded inhibition at 1120 g/ha?
Found: 30

---

- System: Seedling johnsongrass
- ASSAY OVERVIEW: Post-emergence herbicide test
- Format: in vivo
- MEASUREMENT SETUP: Sorghum halepense, 11.21 kg/ha, read-out: % plant inhibition (Sejg)
Below is a list of entries, each paired with its recorded inhibition at 11210 g/ha value.
A bare number is not enough; add the unit after it.

The cases that follow already have their inhibition at 11210 g/ha on record.
ITEM SMILES	inhibition at 11210 g/ha
Cn1nc(-c2cc(NC(=O)C(F)(F)F)c(Cl)cc2Cl)c(Cl)c1C(F)(F)F	70%
Cn1nc(C(F)(F)F)c(Cl)c1-c1cc(F)c([N+](=O)[O-])cc1F	10%

# evaluate next
Lookup: API: value(readout= inhibition at 11210 g/ha, system= Seedling johnsongrass, query= Cn1nc(-c2cc(S(=O)(=O)Cl)c(Cl)cc2Cl)c(Cl)c1C(F)(F)F )
Found: 70%

# credit: patent US5530126A
